Origin of values: PubChem BioAssay AID1918943

System: 855422-203-R-J1-PDC complex spheroid viability
assayInfo: Anticancer human tumor 855422-203-R-J1-PDC patient-derived bladder carcinoma cell line growth inhibition; active means viability on the fitted dose curve at most 10% of control; inactive means the rest
testSettings: second compound 1 µM; first compound 0.03 µM
// one of active, inactive, no free text

Solved cases below.
Assay outcome for NS(=O)(=O)OCC1CC(n2ccc3c(NC4CCc5ccccc54)ncnc32)CC1O (stereo not drawn) + NC1CCC(NC2CC2c2ccccc2)CC1 : what was it?
inactive

Just curious, what result did Nc1ncn(C2CC(O)C(CO)S2)c(=O)n1 (stereo not drawn) + NC1CCC(NC2CC2c2ccccc2)CC1 get here?
inactive

GET /call?item= Nc1ccccc1NC(=O)c1ccc(CNC(=O)OCc2cccnc2)cc1 + NC1CC1c1ccc(-c2cccc(O)c2)cc1 returns the recorded outcome of this test.
inactive

Entry Nc1ccn(C2OC(CO)C(O)C2(F)F)c(=O)n1 (stereo not drawn) + NC1CCC(NC2CC2c2ccccc2)CC1 : call = ?
inactive

---
Please state the recorded outcome for this compound: CCc1c2c(nc3ccc(O)cc13)-c1cc3c(c(=O)n1C2)COC(=O)[C@]3(O)CC + NC1CCC(NC2CC2c2ccccc2)CC1
active

What outcome does the record of this test show for CCc1c2c(nc3ccc(O)cc13)-c1cc3c(c(=O)n1C2)COC(=O)[C@]3(O)CC + NC1CC1c1ccc(-c2cccc(O)c2)cc1 ?
active

Look up the recorded call for CCN(c1cc(-c2ccc(CN3CCOCC3)cc2)cc(C(=O)NCc2c(C)cc(C)[nH]c2=O)c1C)C1CCOCC1 + NC1CCC(NC2CC2c2ccccc2)CC1 in this test.
inactive

What was the test verdict on Nc1ccccc1NC(=O)c1ccc(CNC(=O)OCc2cccnc2)cc1 + NC1CCC(NC2CC2c2ccccc2)CC1 ?
inactive

I would be grateful if you could indicate the recorded call for Nc1ccn(C2OC(CO)C(O)C2(F)F)c(=O)n1 (stereo not drawn) + NC1CC1c1ccc(-c2cccc(O)c2)cc1 .
inactive

Can you look up the reported call for O=C(C=Cc1cccc(S(=O)(=O)Nc2ccccc2)c1)NO + NC1CCC(NC2CC2c2ccccc2)CC1 for me?
inactive

Just curious, what result did Nc1ncn(C2CC(O)C(CO)S2)c(=O)n1 (stereo not drawn) + NC1CC1c1ccc(-c2cccc(O)c2)cc1 get here?
inactive

What did the test return for O=C(C=Cc1cccc(S(=O)(=O)Nc2ccccc2)c1)NO + NC1CC1c1ccc(-c2cccc(O)c2)cc1 ?
inactive

# fetch the recorded call for NS(=O)(=O)OCC1CC(n2ccc3c(NC4CCc5ccccc54)ncnc32)CC1O (stereo not drawn) + NC1CC1c1ccc(-c2cccc(O)c2)cc1 here
inactive

###

Test system: 855422-203-R-J1-PDC complex spheroid viability
assayInfo: Anticancer human tumor 855422-203-R-J1-PDC cell line growth inhibition;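 further: drug exposure lasted 7 days starting on day 3 after seeding; luminescence viability as percent of DMSO vehicle wells = 100%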
testSettings: second compound 10 µM; first compound 0.316 µM; stronger effect = lower value
From the text: Multicellular complex tumor spheroid response to LSD1 Inhibitor Iadademstat in combination with a variety of drugs and investigational agents in selected tumor cell lines The current study was undertaken to assess response to LSD1 inhibitors in combination with standard-of-care drugs and investigational agents in solid tumor complex spheroid models as well as in the K-562 leukemia. […] Compounds. […] If the clinical Cmax for an agent had not been determined, the highest concentration tested was 10 microM. […]
measurementKind: viability, T/C (%)
Provide the reading as a plain figure in %.

Here is how some compounds turned out for viability, T/C.
Notebook: pull reported viability, T/C for 855422-203-R-J1-PDC complex spheroid viability, entry CC(C)c1c(-c2ccccc2)nc2c(C#N)c[nH]n2c1=O + NC1CC1c1ccc(-c2cccc(O)c2)cc1
88.7

Lab note: need viability, T/C with 855422-203-R-J1-PDC complex spheroid viability for entry Nc1ncn(C2CC(O)C(CO)O2)c(=O)n1 (configuration not stated) + NC1CCC(NC2CC2c2ccccc2)CC1 , please look it up.
88.2

Provide the documented viability, T/C with 855422-203-R-J1-PDC complex spheroid viability as the system for CC1COCCN1c1cc(-c2ccnn2C)c2ccnc(-c3ccn[nH]3)c2n1 (configuration not stated) + NC1CCC(NC2CC2c2ccccc2)CC1
33.2

Entry Nc1ncn(C2CC(O)C(CO)O2)c(=O)n1 (configuration not stated) + NC1CC1c1ccc(-c2cccc(O)c2)cc1 , system 855422-203-R-J1-PDC complex spheroid viability: what viability, T/C was measured?
94.8

Given the entry O=C(c1cc(Cc2n[nH]c(=O)c3ccccc23)ccc1F)N1CCN(C(=O)C2CC2)CC1 + NC1CCC(NC2CC2c2ccccc2)CC1 , what viability, T/C was observed with 855422-203-R-J1-PDC complex spheroid viability?
86.4

API: value(readout=viability, T/C, system=855422-203-R-J1-PDC complex spheroid viability) for record O=C(C=Cn1cnc(-c2cc(C(F)(F)F)cc(C(F)(F)F)c2)n1)NNc1cnccn1 + NC1CC1c1ccc(-c2cccc(O)c2)cc1
31

New cases:
Report viability, T/C for CC1COCCN1c1cc(-c2ccnn2C)c2ccnc(-c3ccn[nH]3)c2n1 (configuration not stated) + NC1CC1c1ccc(-c2cccc(O)c2)cc1 tested on 855422-203-R-J1-PDC complex spheroid viability.
27.1
